biological target: T1, purified rhesus CD117 ectodomain (rhesus, UniProt F6V858 26-524); assay: BLI, purified IgG on sensor, soluble rhesus ectodomain; apparent monovalent
T1 construct: extracellular domain; also called rhesus antigen
Kindly supply the reported kon values for the records listed here.

Record kon for all entries; do not skip any.
1. HC-19/LC-19 (Ab19) (antibody, IgG1, V domains shown, From rat immunization/hybridoma; purified IgG in BLI; also called 019) VH: EVQLQESGPGLVKPSQSLSLTCSVTGYSISSNYRWNWIRKFPGNKVEWMGYINSAGSTNYNPSLKSRISMTRDTSKNQFFLQVNSVTTEDTATYYCARSLRGYITDYSGFFDYWGQGVMVTVSS VL: DIRMTQSPASLSASLGETVNIECLASEDIFSDLAWYQQKPGKSPQLLIYNANSLQNGVPSRFSGSGSGTRYSLKINSLQSEDVATYFCQQYKNYPLTFGSGTKLEIK
2. HC-20/LC-20 (Ab20) (antibody, IgG1, V domains shown, From rat immunization/hybridoma; purified IgG in BLI; also called 020) VH: EVQLQQYGAELGKPGTSVRLSCKLSGYKIRNTYIHWVNQRPGKGLEWIGRIDPANGNTIYAEKFKSKVTLTADTSSNTAYMQLSQLKSDDTALYFCAMNYEGYEDYWGQGVMVTVSS VL: DIQMTQSPSFLSASVGDSVTINCKASQNINKYLNWYQQKLGEAPKRLIHKTDSLQTGIPSRFSGSGSGTDYTLTISSLQPEDVATYFCFQYKSGFMFGAGTKLELK
3. HC-18/LC-18 (Ab18) (antibody, IgG1, V domains shown, From rat immunization/hybridoma; purified IgG in BLI; also called 018) VH: EVQLQQYGAELGKPGTSVRLSCKVSGYNIRNTYIHWVNQRPGEGLEWIGRIDPTNGNTISAEKFKTKATLTADTSSHTAYLQFSQLKSDDTAIYFCALNYEGYADYWGQGVMVTGSS VL: DIQMTQSPSFLSASVGDRVTINCKASQNINKYLNWYQQKVGEAPKRLIFKTNSLQTGIPSRFSGSGSGTDYTLTISSLQTEDVATYFCFQYNIGYTFGAGTKVELK
4. HC-25/LC-25 (Ab25) (antibody, IgG1, V domains shown, From rat immunization/hybridoma; purified IgG in BLI; also called 025) VH: QIQLVQSGPELKKPGESVKISCKASGYTFTDYAIHWVKQAPGQGLRWMAWINTETGKPTYADDFKGRFVFSLEASASTAHLQISNLKNEDTATFFCAGGSHWFAYWGQGTLVTVSS VL: SYELIQPPSASVTLENTVSITCSGDELSNKYAHWYQQKPDKTILEVIYNDSERPSGISDRFSGSSSGTTAILTIRDAQAEDEADYYCLSTFSDDDLPIFGGGTKLTVL

1: 177000 M⁻¹ s⁻¹; 2: 421000 M⁻¹ s⁻¹; 3: 221000 M⁻¹ s⁻¹; 4: 2.41e+06 M⁻¹ s⁻¹

Which measured kon value corresponds to HC-17/LC-17 (Ab17) (antibody, IgG1, V domains shown, From rat immunization/hybridoma; purified IgG in BLI; also called 017) VH: QIQLVQSGPELRKPGESVKISCKASGYTFTDYAMYWVKQAPGKGLKWMGWINTYTGKPTYADDFKGRFVFSLEASANTANLQISNLKNEDTATYFCARARGLVDDYVMDAWGQGTSVTVSS VL: SYELIQPPSASVTLGNTVSLTCVGDELSKRYAQWYQQKPDKTIVSVIYKDSERPSGISDRFSGSSSGTTATLTIHGTLAEDEADYYCLSTYSDDNLPVFGGGTKLTVL ?
307000 M⁻¹ s⁻¹
